Target: Sterol O-acyltransferase 1 (Rattus norvegicus)
Sequence (O70536 whole entry): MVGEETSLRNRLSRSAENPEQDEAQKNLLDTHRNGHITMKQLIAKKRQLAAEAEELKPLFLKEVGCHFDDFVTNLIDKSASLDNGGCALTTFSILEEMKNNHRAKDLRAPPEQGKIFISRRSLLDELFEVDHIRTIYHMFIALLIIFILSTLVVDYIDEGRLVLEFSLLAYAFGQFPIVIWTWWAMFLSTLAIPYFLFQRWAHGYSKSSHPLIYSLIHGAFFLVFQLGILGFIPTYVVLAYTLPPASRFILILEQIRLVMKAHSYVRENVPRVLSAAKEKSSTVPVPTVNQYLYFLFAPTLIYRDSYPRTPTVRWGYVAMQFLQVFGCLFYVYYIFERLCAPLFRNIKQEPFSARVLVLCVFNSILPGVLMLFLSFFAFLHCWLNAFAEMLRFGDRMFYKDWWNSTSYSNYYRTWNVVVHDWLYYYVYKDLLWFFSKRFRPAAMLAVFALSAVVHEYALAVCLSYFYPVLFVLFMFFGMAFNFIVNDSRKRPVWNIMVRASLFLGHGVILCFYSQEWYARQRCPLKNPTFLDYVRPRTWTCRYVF
QUANTITY KIND: pIC50
Kindly note that pIC50 refers to -log10 of the concentration in mol/L and answer with the value alone.

As a guide, the following entries are already answered.
- STRUCTURE AS SMILES: "CC(C)c1nc2ccccc2n1CCCCCSc1nc(-c2ccccc2)c(-c2ccccc2)[nH]1"
  MEASURED TARGET: "Sterol O-acyltransferase 1 (Rattus norvegicus)"
  pIC50: 6.16
- STRUCTURE AS SMILES: "COc1ccc(-c2nc(SCCCCCn3c(SC)nc4ccccc43)[nH]c2-c2ccc(OC)cc2)cc1"
  MEASURED TARGET: "Sterol O-acyltransferase 1 (Rattus norvegicus)"
  pIC50: 5.85
- STRUCTURE AS SMILES: "COc1ccc(-c2nc(SCCCCCSc3nc(-c4ccc(OC)cc4)c(-c4ccc(OC)cc4)[nH]3)[nH]c2-c2ccc(OC)cc2)cc1"
  MEASURED TARGET: "Sterol O-acyltransferase 1 (Rattus norvegicus)"
  pIC50: 6.66
- STRUCTURE AS SMILES: "CCCCCCCN(CCCCCSc1nc(-c2ccc(OC)cc2)c(-c2ccc(OC)cc2)[nH]1)c1nc2ccccc2[nH]1"
  MEASURED TARGET: "Sterol O-acyltransferase 1 (Rattus norvegicus)"
  pIC50: 7.05
- STRUCTURE AS SMILES: "CCCCN(CCCCCSc1nc(-c2ccc(OC)cc2)c(-c2ccc(OC)cc2)[nH]1)c1nc2cc(C(C)(C)C)ccc2o1"
  MEASURED TARGET: "Sterol O-acyltransferase 1 (Rattus norvegicus)"
  pIC50: 7.10

Problem: Bench note: what pIC50 did `COc1ccc(-c2nc(SCCCCCSc3nc4ccccc4[nH]3)[nH]c2-c2ccc(OC)cc2)cc1` show?
Solution: 6.20

Problem: Reported pIC50 for `CN(C)c1ccc(-c2nc(SCCCCCSc3nc(-c4ccc(N(C)C)cc4)c(-c4ccc(N(C)C)cc4)[nH]3)[nH]c2-c2ccc(N(C)C)cc2)cc1` : what is it?
Solution: 7.05

Problem: For the compound shown here, `CCCCN(CCCCCSc1nc(-c2ccc(OC)cc2)c(-c2ccc(OC)cc2)[nH]1)c1nc2ccccc2o1` , give the reported pIC50.
Solution: 7.10

Problem: I would be grateful if you could share the reported pIC50 for `CCN(CCCCCSc1nc(-c2ccc(OC)cc2)c(-c2ccc(OC)cc2)[nH]1)c1nc2ccccc2o1` .
Solution: 6.85

Problem: Need pIC50 of `CC(C)c1nc2ccccc2n1CCCCCSc1nc(-c2ccc(N(C)C)cc2)c(-c2ccc(N(C)C)cc2)[nH]1` , thanks.
Solution: 6.40

Problem: Quick check: pIC50 of `COc1ccc(-c2nc(SCCCCCn3c4ccccc4c4ccccc43)[nH]c2-c2ccc(OC)cc2)cc1` ?
Solution: 4.30

====

Each entry below carries its measured pIC50, system: Sterol O-acyltransferase 1 (Rattus norvegicus).
Note: pIC50 values are expressed as the negative base-10 logarithm of concentration in M.

Example compounds with recorded pIC50:
- STRUCTURE AS SMILES: "COc1ccc(-c2nc(SCCCCCn3c(C(C)C)nc4ccccc43)[nH]c2-c2ccc(OC)cc2)cc1"
  pIC50: 6.64
- STRUCTURE AS SMILES: "c1ccc(-c2nc(SCCCCCSc3nc(-c4ccccc4)c(-c4ccccc4)[nH]3)[nH]c2-c2ccccc2)cc1"
  pIC50: 7.52
- STRUCTURE AS SMILES: "CCN(CCCCCSc1nc(-c2ccccc2)c(-c2ccc(SC)cc2)[nH]1)c1nc2ccccc2o1"
  pIC50: 6.15
- STRUCTURE AS SMILES: "COc1ccc(-c2nc(SCCCCCn3c(Nc4ccccc4)nc4ccccc43)[nH]c2-c2ccc(OC)cc2)cc1"
  pIC50: 6.12
- STRUCTURE AS SMILES: "CCCCCCCN(CCCCCSc1nc(-c2ccccc2)c(-c2ccccc2)[nH]1)c1nc2ccccc2o1"
  pIC50: 6.52

Okay, now this compound:
Problem: # pIC50 lookup, item `COCCOCCN(CCCCCSc1nc(-c2ccc(OC)cc2)c(-c2ccc(OC)cc2)[nH]1)c1nc2ccccc2o1`
Solution: 7.40
